# experimental_target: Scavenger receptor class B member 1 (Mus musculus) (UniProt Q61009)
# Sequence (Q61009 whole entry, looked up): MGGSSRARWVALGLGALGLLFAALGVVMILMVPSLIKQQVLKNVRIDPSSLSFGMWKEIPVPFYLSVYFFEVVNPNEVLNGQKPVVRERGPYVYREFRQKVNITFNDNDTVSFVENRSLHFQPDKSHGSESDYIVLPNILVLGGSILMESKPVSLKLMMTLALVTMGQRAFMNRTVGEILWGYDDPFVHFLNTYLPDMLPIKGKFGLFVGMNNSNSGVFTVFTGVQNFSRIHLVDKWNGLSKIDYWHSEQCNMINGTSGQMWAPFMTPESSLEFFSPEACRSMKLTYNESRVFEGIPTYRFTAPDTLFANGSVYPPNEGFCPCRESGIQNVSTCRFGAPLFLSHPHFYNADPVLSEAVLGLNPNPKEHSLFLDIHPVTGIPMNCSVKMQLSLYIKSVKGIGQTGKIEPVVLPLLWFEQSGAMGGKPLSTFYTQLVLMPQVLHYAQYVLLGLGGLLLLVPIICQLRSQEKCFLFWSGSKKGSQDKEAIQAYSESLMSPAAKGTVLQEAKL
# assay_summary: enhancers of DiI-HDL lipid transfer via SR-BI – cell-based, ldlA[mSR-BI] CHO, DiI fluorescence, cherry-pick, dose response (AID 602191);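 further: cell fluorescence from internalized DiI-labeled HDL after washing; 0% = median of DMSO wells and 100% = twice the DMSO signal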
# condition_summary: ldlA[mSR-BI] CHO cells, 3 h, at 35 µM (top of the series)
Task for the reader: assign each of the following compounds its reported activation (HDL uptake increase).
Quick reminder: number only, in %, skip the unit.

activation (HDL uptake increase) in this record for CCS(=O)(=O)c1nc(S(=O)(=O)c2ccc(C)cc2)c(N2CCC(C)CC2)s1 : -8.15

According to the records, this compound CC(C)C[C@@H](CN1CCCC1CN1C(=S)NC[C@@H]1Cc1ccc(O)cc1)N1C[C@H](Cc2ccc(O)cc2)N(CC2CCCCCC2)C1=S (some centres undefined) displays activation (HDL uptake increase) of 1.49

Lookup result for COc1ccc(N2C(=O)C(CC(=O)Nc3ccc(F)cc3)N(CCc3cccs3)C2=O)cc1 (centres undefined) ; measured activation (HDL uptake increase): -4.44

So, CCOC(=O)C1CCCN(C(=O)CS(=O)(=O)Cc2ccccc2)C1 (centres undefined) ? Its activation (HDL uptake increase) was 7.75

// activation (HDL uptake increase) lookup, compound = O=C(NCc1cnn(-c2ccccc2)c1)C1CCC(=O)N(C2CC2)C1 (centres undefined) , result: -6.78

activation (HDL uptake increase) reported for this compound NNC(=O)CNC(c1ccccc1)c1cc(Br)ccc1NC(=O)CCN1CCOCC1 (centres undefined) : -9.57

So, CC(C)(C)SCCNC(=O)c1ccc(Cl)c([N+](=O)[O-])c1 ? Its activation (HDL uptake increase) was -10.4

Notebook: O=C(c1ccc(CS(=O)Cc2ccccc2Cl)o1)N1CCN(C2CCCCC2)CC1 (centres undefined) , activation (HDL uptake increase) read as 2.09

Short answer for COc1ccc(C(C(=O)NC2CCCCC2)N(C(=O)CCl)c2ccccc2Cl)cc1 (centres undefined) : activation (HDL uptake increase) was -7.36
